# SYSTEM UNDER TEST: recombinant CpIMPDH (Cryptosporidium parvum)
# Sequence (Q8T6T2 1-400): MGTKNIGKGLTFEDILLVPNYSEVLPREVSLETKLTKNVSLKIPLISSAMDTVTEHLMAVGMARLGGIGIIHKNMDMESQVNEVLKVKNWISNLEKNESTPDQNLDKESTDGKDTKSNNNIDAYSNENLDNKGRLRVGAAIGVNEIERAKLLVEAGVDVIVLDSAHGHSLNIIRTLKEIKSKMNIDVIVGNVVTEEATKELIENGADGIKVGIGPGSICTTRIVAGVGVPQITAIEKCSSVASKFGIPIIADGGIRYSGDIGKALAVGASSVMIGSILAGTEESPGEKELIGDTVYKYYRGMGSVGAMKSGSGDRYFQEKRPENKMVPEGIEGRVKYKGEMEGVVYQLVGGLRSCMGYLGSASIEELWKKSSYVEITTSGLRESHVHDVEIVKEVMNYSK
# ASSAY NAME: biochemical
pIC50: −log10 of the molar value.
MEASUREMENT NAME: pIC50

input: Could you tell me which pIC50 is on file for C/C(=N\O)c1cccc(C(C)(C)NC(=O)Nc2ccc(Cl)c(C(N)=O)c2)c1 [Compound 7c] ?
output: ≥ 9.00
